# target: Histone deacetylase 1 (Homo sapiens, UniProt Q13547)
# Sequence (Q13547 whole entry): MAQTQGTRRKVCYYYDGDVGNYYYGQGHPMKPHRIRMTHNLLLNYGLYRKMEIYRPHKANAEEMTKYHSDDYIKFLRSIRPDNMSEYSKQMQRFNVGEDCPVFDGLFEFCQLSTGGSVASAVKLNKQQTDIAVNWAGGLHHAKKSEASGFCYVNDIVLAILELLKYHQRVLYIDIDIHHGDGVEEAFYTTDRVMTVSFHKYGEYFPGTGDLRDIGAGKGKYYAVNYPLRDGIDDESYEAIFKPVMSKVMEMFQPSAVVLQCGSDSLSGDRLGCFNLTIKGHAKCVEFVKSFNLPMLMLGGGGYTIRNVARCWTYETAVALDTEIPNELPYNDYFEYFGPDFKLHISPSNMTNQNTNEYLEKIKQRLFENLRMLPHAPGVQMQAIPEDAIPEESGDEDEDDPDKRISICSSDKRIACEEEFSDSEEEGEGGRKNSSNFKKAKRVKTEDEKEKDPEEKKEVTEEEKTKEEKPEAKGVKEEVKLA
measured.property: IC50 (nM)
Numbers only, in nM.

Problem: Value lookup for IC50; key = O=C(NO)N/C=C/c1ccc(-c2ccccc2)cc1
Result: 1310

* * *

# test.protocol: cells
# Format: functional, cell-based
# particulars: Homo sapiens, NB-4, 72 h
# Description: Growth inhibition of human NB4 cells after 72 hrs
measured.property: IC50

Example cases with answers are listed next.
>>> reported_value("NNC(=O)/C=C/c1ccc(-c2ccccc2)cc1")
"7.1 µM"
>>> reported_value("CC(=O)SCC(=O)/C=C/c1ccc(-c2ccccc2)cc1")
"> 20 µM"

For each entry beneath this line, provide reported IC50.
1. NNC(=O)N/C=C/c1ccc(-c2ccccc2)cc1
2. O=C1/C(=C/c2ccc(-c3ccccc3)cc2)CCN1O
3. O=C(O)/C=C/c1ccc(-c2ccccc2)cc1

Result:
9.8 µM
> 20 µM
> 10 µM

* * *

# test.protocol: cells
# Assay type: functional, cell-based
# particulars: Homo sapiens, NB-4, 72 h
measured.property: IC50 (µM)
Answers are plain numbers, in µM.

>>> reported_value("O=C(/C=C/c1ccc(-c2ccccc2)cc1)NO")
0.9

Turning to the following molecule.
Problem: Entry O=C(NO)N/C=C/c1ccc(-c2ccccc2)cc1 has what IC50?
Result: 1.96
